Consider the following molecules; for each one, report its pest or weed control at 150 ppm, 3.8 mg/pot.
- Tested on: Fusarium solani
- assay remarks: Soil treatment, bean root rot
- Format: in vivo
- study conditions: Fusarium solani, soil, 336 h; 150 ppm suspension, 3.8 mg active per pot; read-out: Percent Disease Control, seed/soil, bean root rot
Please respond with the number in % and leave the unit unwritten.

I have this molecule here, COc1ccc(Oc2nsnc(Cl)c2=O)cc1 , and I need its recorded pest or weed control at 150 ppm, 3.8 mg/pot.
50

I have this molecule here, Cc1cc(Oc2nsnc(Cl)c2=O)cc(C)c1Cl , and I need its recorded pest or weed control at 150 ppm, 3.8 mg/pot.
0

I have this molecule here, CC(=O)c1ccc(Oc2nsnc(Cl)c2=O)cc1 , and I need its recorded pest or weed control at 150 ppm, 3.8 mg/pot.
95

I have this molecule here, CC(C)(C)c1ccc(Oc2nsnc(Cl)c2=O)cc1 , and I need its recorded pest or weed control at 150 ppm, 3.8 mg/pot.
0

I have this molecule here, Cc1ccc(Oc2nsnc(Cl)c2=O)c(Br)c1 , and I need its recorded pest or weed control at 150 ppm, 3.8 mg/pot.
0

I have this molecule here, Cc1ccc(Oc2nsnc(Cl)c2=O)c(C)c1 , and I need its recorded pest or weed control at 150 ppm, 3.8 mg/pot.
0

I have this molecule here, O=c1c(Cl)nsnc1Oc1cccc(Cl)c1Cl , and I need its recorded pest or weed control at 150 ppm, 3.8 mg/pot.
0

I have this molecule here, O=c1c(Cl)nsnc1Oc1ccc(Cl)cc1Cl , and I need its recorded pest or weed control at 150 ppm, 3.8 mg/pot.
0

I have this molecule here, O=c1c(Cl)nsnc1Oc1ccccc1 , and I need its recorded pest or weed control at 150 ppm, 3.8 mg/pot.
100

I have this molecule here, O=c1c(Cl)nsnc1Oc1cc(Cl)cc(Cl)c1 , and I need its recorded pest or weed control at 150 ppm, 3.8 mg/pot.
75

I have this molecule here, O=c1c(Cl)nsnc1Oc1ccc(F)cc1 , and I need its recorded pest or weed control at 150 ppm, 3.8 mg/pot.
0

I have this molecule here, N#Cc1ccc(Oc2nsnc(Cl)c2=O)cc1 , and I need its recorded pest or weed control at 150 ppm, 3.8 mg/pot.
0

I have this molecule here, Cc1cc(Cl)c(Oc2nsnc(Cl)c2=O)cc1C , and I need its recorded pest or weed control at 150 ppm, 3.8 mg/pot.
0

I have this molecule here, O=c1c(Cl)nsnc1Oc1ccc(Br)cc1 , and I need its recorded pest or weed control at 150 ppm, 3.8 mg/pot.
0

I have this molecule here, O=C(O)Cc1ccccc1Oc1nsnc(Cl)c1=O , and I need its recorded pest or weed control at 150 ppm, 3.8 mg/pot.
90

I have this molecule here, Cc1cc(Cl)ccc1Oc1nsnc(Cl)c1=O , and I need its recorded pest or weed control at 150 ppm, 3.8 mg/pot.
0

I have this molecule here, Cc1cc(Oc2nsnc(Cl)c2=O)ccc1Cl , and I need its recorded pest or weed control at 150 ppm, 3.8 mg/pot.
0

I have this molecule here, O=c1c(Cl)nsnc1Oc1c(Cl)cc(Cl)cc1Cl , and I need its recorded pest or weed control at 150 ppm, 3.8 mg/pot.
0

I have this molecule here, CC(=O)c1cccc(Oc2nsnc(Cl)c2=O)c1 , and I need its recorded pest or weed control at 150 ppm, 3.8 mg/pot.
95

====

- Tested on: Pyricularia oryzae
- assay remarks: microbe, parasite or virus in culture
- Assay type: cell-based
- study conditions: Pyricularia oryzae, 72 h, read-out: Percent Fungus Growth Inhibition, PO, 5 ppm, 72 hours
Class key for inhibition at 5 ppm values: bucket 1 (below 20%), bucket 2 (20% to below 40%), bucket 3 (40% or more)

Which inhibition at 5 ppm band matches O=c1c(Cl)nsnc1Oc1cccc(C(F)(F)F)c1 ?
bucket 3

Which inhibition at 5 ppm band matches CC(=O)c1cccc(Oc2nsnc(Cl)c2=O)c1 ?
bucket 3

Which inhibition at 5 ppm band matches O=c1c(Cl)nsnc1Oc1ccc(O)cc1 ?
bucket 2

Which inhibition at 5 ppm band matches O=c1c(Cl)nsnc1Oc1ccc([N+](=O)[O-])cc1 ?
bucket 2

Which inhibition at 5 ppm band matches Cc1ccc(Oc2nsnc(Cl)c2=O)cc1 ?
bucket 1

Which inhibition at 5 ppm band matches Cc1cccc(Oc2nsnc(Cl)c2=O)c1 ?
bucket 2

Which inhibition at 5 ppm band matches COc1cc(Cl)cc(Oc2nsnc(Cl)c2=O)c1 ?
bucket 3

Which inhibition at 5 ppm band matches N#CCc1ccc(Oc2nsnc(Cl)c2=O)cc1 ?
bucket 2

Which inhibition at 5 ppm band matches CS(=O)(=O)c1ccc(Oc2nsnc(Cl)c2=O)cc1 ?
bucket 2

Which inhibition at 5 ppm band matches O=c1c(Cl)nsnc1Oc1ccc(Cl)cc1Cl ?
bucket 2

Which inhibition at 5 ppm band matches N#Cc1ccc(Oc2nsnc(Cl)c2=O)cc1 ?
bucket 1

Which inhibition at 5 ppm band matches O=c1c(Cl)nsnc1Oc1c(Cl)c(Cl)c(Cl)c(Cl)c1Cl ?
bucket 2

Which inhibition at 5 ppm band matches Cc1ccc(Oc2nsnc(Cl)c2=O)c(Br)c1 ?
bucket 3

Which inhibition at 5 ppm band matches CC(=O)c1ccc(Oc2nsnc(Cl)c2=O)cc1 ?
bucket 3

Which inhibition at 5 ppm band matches CCOC(=O)c1ccc(Oc2nsnc(Cl)c2=O)cc1 ?
bucket 1

Which inhibition at 5 ppm band matches O=c1c(Cl)nsnc1Oc1ccc([N+](=O)[O-])cc1Cl ?
bucket 3

Which inhibition at 5 ppm band matches O=c1c(Cl)nsnc1Oc1cccc(Cl)c1 ?
bucket 3

Which inhibition at 5 ppm band matches Cc1cc(C)cc(Oc2nsnc(Cl)c2=O)c1 ?
bucket 2

Which inhibition at 5 ppm band matches Cc1cc(Oc2nsnc(Cl)c2=O)ccc1Cl ?
bucket 3

Which inhibition at 5 ppm band matches Cc1cccc(C)c1Oc1nsnc(Cl)c1=O ?
bucket 2

Which inhibition at 5 ppm band matches O=C(O)Cc1ccccc1Oc1nsnc(Cl)c1=O ?
bucket 1
